Give measured Kd for each item. Keep answers brief.
- ASSAY_TARGET: T1, HMGB2 (Homo sapiens, UniProt P26583 1-209)
- T1 sequence: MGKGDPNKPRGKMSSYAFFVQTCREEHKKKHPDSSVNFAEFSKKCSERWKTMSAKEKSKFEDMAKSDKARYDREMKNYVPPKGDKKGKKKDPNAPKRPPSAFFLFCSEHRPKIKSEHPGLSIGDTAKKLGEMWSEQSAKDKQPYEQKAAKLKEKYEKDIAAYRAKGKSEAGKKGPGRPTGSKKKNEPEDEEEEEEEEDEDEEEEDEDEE
- METHOD_DESCRIPTION: MST; MST, 50 nM labelled protein, 0.61 nM-20 uM oligo, 140 mM potassium phosphate pH 7.2 (6.7 for i-motif N1-3; CTCF oligo CD at pH 6.7), 10 mM NaCl in oligo stocks, 22 C
- ASSAY_SETUP: protein: commercial; tags: His; mixed-topology G4
Give bare numbers, in µM.

In [3]: df
Out[3]:
                                     binder  property  measurement
0  GGGCCCTGGGAACGGGGAGGG (structured_DNA) [B2-M7]        Kd          1.6

Okay, now this binder:
(Q) Form field: reported Kd of GGGAGAGGGAGAGGGAGAGGG (structured_DNA) [B2-M6]
(A) 4

// data source = paper PMC8269367
